protocol-text: activity coefficient (dimensionless); of the first substance listed, at infinite dilution; xn = mol fraction of the nth substance listed
cond: 318.15 K; 101 kPa; Liquid; Chromatography; x1 = 0
readout-type: activity coefficient
One number for each entry.

Past entries and their recorded results:
> print(dat)
                                   compound  observed.measurement
1  CCCCCCCCC [nonane] + CCCCCCOCn1cc[n+](COCCCCCC)c1.O=S(=O)([N-]S(=O)(=O)C(F)(F)F)C(F)(F)F                  5.42
2  C=CCCCC [hex-1-ene] + CCCCCCOCn1cc[n+](COCCCCCC)c1.O=S(=O)([N-]S(=O)(=O)C(F)(F)F)C(F)(F)F                  2.15
3  O [water] + CCCCCCOCn1cc[n+](COCCCCCC)c1.O=S(=O)([N-]S(=O)(=O)C(F)(F)F)C(F)(F)F                  3.31

Prompt: Fill in activity coefficient for record C1CCCC1 [cyclopentane] + CCCCCCOCn1cc[n+](COCCCCCC)c1.O=S(=O)([N-]S(=O)(=O)C(F)(F)F)C(F)(F)F
Response: 1.74

All values here come from the NIST ThermoML archive (doi:10.1016/j.fluid.2009.08.017).
